Measured on: T1, ferroportin endogenously expressed on T47D cells (HTB 133, ATCC) (human, UniProt Q9NP59 1-571)
T1 sequence (looked up): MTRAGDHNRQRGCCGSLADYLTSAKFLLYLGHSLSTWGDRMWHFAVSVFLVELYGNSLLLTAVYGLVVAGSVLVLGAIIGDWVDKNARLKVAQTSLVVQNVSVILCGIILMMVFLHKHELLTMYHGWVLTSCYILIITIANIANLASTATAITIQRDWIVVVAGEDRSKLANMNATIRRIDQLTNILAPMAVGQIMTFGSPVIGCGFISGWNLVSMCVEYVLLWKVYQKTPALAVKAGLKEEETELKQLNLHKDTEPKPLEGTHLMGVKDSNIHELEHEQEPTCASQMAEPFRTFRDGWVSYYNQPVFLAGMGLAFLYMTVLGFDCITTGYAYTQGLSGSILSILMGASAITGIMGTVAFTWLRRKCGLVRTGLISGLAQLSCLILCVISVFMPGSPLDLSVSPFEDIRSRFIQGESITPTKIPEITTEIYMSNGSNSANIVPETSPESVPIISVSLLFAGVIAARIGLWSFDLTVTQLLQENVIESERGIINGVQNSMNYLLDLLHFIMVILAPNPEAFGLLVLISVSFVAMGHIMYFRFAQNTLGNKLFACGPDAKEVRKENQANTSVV
Experiment summary: cell-based or functional assay
Positions of bridges follow the written chain, without caps; N, C: chain ends. Non-standard residues stand in square brackets, D forms with d. Groups on a side chain read outwards from the residue. *: point of attachment. Dip = N[C@H](C(=O)O)C(c1ccccc1)c1ccccc1; Palmitoyl = CCCCCCCCCCCCCCCC(=O)*; β3hF = N[C@H](CC(=O)O)Cc1ccccc1; NMeK = CN[C@@H](CCCCN)C(=O)O; Isovaleryl = CC(C)CC(=O)*; Ahx = NCCCCCC(=O)O
Let's look at some binders and their measured T47D MSA IC50.
Give the value in nM but do not write nM after it.

Below, each entry is followed by its recorded T47D MSA IC50 result.
# Binder, T47D MSA IC50 / nM
data = [
    ("XXTHXPAIEXXR (N-term Isovaleric Acid; Dab1; Dpa4; bhPhe9; Lys(Ahx_Palm)10; C-term NH2; cyclized Dab-E (lactam)) [Isovaleric Acid-Dab-T-H-[Dpa]-P-A-I-E-[bhPhe]-[Lys(Ahx_Palm)]-R-NH2]", 5.53),
    ("Isovaleryl-KTH[Dip]PAIE[β3hF]K([Ahx-Palmitoyl])-NH2 (lactam 1-8; SMILES CCCCCCCCCCCCCCCC(=O)NCCCCCC(=O)NCCCC[C@H](NC(=O)C[C@H](Cc1ccccc1)NC(=O)[C@@H]1CCC(=O)NCCCC[C@H](NC(=O)CC(C)C)C(=O)N[C@@H]([C@@H](C)O)C(=O)N[C@@H](Cc2c[nH]cn2)C(=O)N[C@@H](C(c2ccccc2)c2ccccc2)C(=O)N2CCC[C@H]2C(=O)N[C@@H](C)C(=O)N[C@@H]([C@@H](C)CC)C(=O)N1)C(N)=O) [Isovaleric Acid-K-T-H-[Dpa]-P-A-I-E-[bhPhe]-[Lys(Ahx_Palm)]-NH2]", 3.53),
    ("Isovaleryl-ETH[Dip]PIK[β3hF]K([Ahx-Palmitoyl])-NH2 (lactam 1-7 (inferred)) [Isovaleric Acid-E-T-H-[Dpa]-P-I-K-[bhPhe]-[Lys(Ahx_Palm)]-NH2]", 25.5),
]

Any idea what its T47D MSA IC50 is? The binder is Isovaleryl-KTH[Dip]PAIEK([Ahx-Palmitoyl])-NH2 (lactam 1-8; SMILES CCCCCCCCCCCCCCCC(=O)NCCCCCC(=O)NCCCC[C@H](NC(=O)[C@@H]1CCC(=O)NCCCC[C@H](NC(=O)CC(C)C)C(=O)N[C@@H]([C@@H](C)O)C(=O)N[C@@H](Cc2c[nH]cn2)C(=O)N[C@@H](C(c2ccccc2)c2ccccc2)C(=O)N2CCC[C@H]2C(=O)N[C@@H](C)C(=O)N[C@@H]([C@@H](C)CC)C(=O)N1)C(N)=O) [Isovaleric Acid-K-T-H-[Dpa]-P-A-I-E-[Lys(Ahx_Palm)]-NH2]
31.2

Dear colleague, I am looking for the recorded T47D MSA IC50 of the following binder: XETHXPXX (N-term Isovaleric Acid; Dpa4; Lys(Ahx_Palm)6; C-term N_Propyl_Phe) [Isovaleric Acid-E-T-H-[Dpa]-P-[Lys(Ahx_Palm)]-N_Propyl_Phe]
15.3

Quick one: T47D MSA IC50 for XETHXPXX (N-term Butyric_Acid; Dpa4; Lys(Ahx_Palm)6; C-term N_Butyl_Phe) [Butyric_Acid-E-T-H-[Dpa]-P-[Lys(Ahx_Palm)]-N_Butyl_Phe] ?
10.1

Reported T47D MSA IC50 for Isovaleryl-KTH[Dip]PAIE[β3hF][NMeK]([Ahx-Palmitoyl])-NH2 (lactam 1-8; SMILES CCCCCCCCCCCCCCCC(=O)NCCCCCC(=O)NCCCC[C@@H](C(N)=O)N(C)C(=O)C[C@H](Cc1ccccc1)NC(=O)[C@@H]1CCC(=O)NCCCC[C@H](NC(=O)CC(C)C)C(=O)N[C@@H]([C@@H](C)O)C(=O)N[C@@H](Cc2c[nH]cn2)C(=O)N[C@@H](C(c2ccccc2)c2ccccc2)C(=O)N2CCC[C@H]2C(=O)N[C@@H](C)C(=O)N[C@@H]([C@@H](C)CC)C(=O)N1) [Isovaleric Acid-K-T-H-[Dpa]-P-A-I-E-[bhPhe]-NMe[Lys(Ahx_Palm)]-NH2] : what is it?
4.07

Consider the binder shown here: XETHXPKXX (N-term Isovaleric Acid; Dpa4; bhPhe7; Lys(Ahx_Palm)8; C-term NH2; cyclized E-K (lactam)) [Isovaleric Acid-E-T-H-[Dpa]-P-K-[bhPhe]-[Lys(Ahx_Palm)]-NH2] What is its recorded T47D MSA IC50?
52.3

Fill in: T47D MSA IC50 of XETHXPXX (N-term Isovaleric Acid; Dpa4; Lys(Ahx_Palm)6; C-term N_Ethyl_Nap) [Isovaleric Acid-E-T-H-[Dpa]-P-[Lys(Ahx_Palm)]-N_Ethyl_Nap] is ___
24.4
